Hey, just so you know, these numbers are from patent US4910213A.

# Test system: Candida albicans

{"columns": ["compound", "MIC, µg/mL"],
 "data": [
  ["OC(Cn1cncn1)(Cn1cncn1)c1ccc(Cl)cc1 [(B), reference compound]", 2],
  ["OC(Cn1cncn1)(Cn1cncn1)c1ccccc1 [(C), reference compound]", 64],
  ["OC(Cn1cncn1)(c1ccc(Cl)cc1)C1(n2cncn2)CC1 (stereo not drawn)", 8],
  ["OC(Cn1cncn1)(c1ccccc1)C1(n2cncn2)CC1 (stereo not drawn)", 8],
  ["OC(Cn1cncn1)(c1ccc(-c2ccccc2)cc1)C1(n2cncn2)CC1 (stereo not drawn)", 2],
  ["OC(Cn1cncn1)(c1ccc(Br)cc1)C1(n2cncn2)CC1 (stereo not drawn)", 4]
]}
